- tested_on: T1, human cANGPTL4 (C-terminal fragment of Angiopoietin-like 4 protein) (human, UniProt Q9BY76 186-406, limits assumed)
- T1 construct: domain: C-terminal fragment (cANGPTL4); Purified cANGPTL4 was immobilised by amine coupling on the CM5 chip for SPR and on carboxylated microwell plates for ELISA; also called purified cANGPTL4; human cANGPTL4 antigen
- T1 sequence (looked up): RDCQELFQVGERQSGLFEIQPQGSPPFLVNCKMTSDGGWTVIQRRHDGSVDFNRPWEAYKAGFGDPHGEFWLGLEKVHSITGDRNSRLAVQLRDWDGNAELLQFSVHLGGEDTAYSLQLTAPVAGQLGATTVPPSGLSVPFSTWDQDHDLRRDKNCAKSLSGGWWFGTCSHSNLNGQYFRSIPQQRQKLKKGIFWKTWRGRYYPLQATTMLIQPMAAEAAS
- measurement_protocol: SPR (BIACORE 3000), cANGPTL4 amine-coupled to CM5 chip, antibody as analyte
endpoint_label: kon (M⁻¹ s⁻¹)
Answers are plain numbers, in M⁻¹ s⁻¹.

Guide cases for kon, answers given:
binder: murine monoclonal antibody mAb11F6C4 (antibody, V domains shown, Murine monoclonal antibody, the parent of the humanized antibodies; also called Control 11F6C4; original mouse-derived mAb) VH: QITLKESGPGILKPSQTLSLTCSFSGFSLSTSGMGVGWIRQPSGKGLEWLAHIWWDDDKYYNPSLKSQLTISKDTSRNQVFLKITSVDTADTATYYCARKDYGSSYDYWGQGTTLTVSS VL: DIVLTQSPASLAVSLGQRATISCKASQSVDYDGDSYLNWFQQKPGQPPKLLIYTASNLESGIPARFSGSGSGTDFTLNIHPVEEEDAATYYCQQSNEDPWTFGGGTTLEIK
measure_unit: M⁻¹ s⁻¹
kon: 109000
--
binder: Antuzumab 2 (antibody, V domains shown, Humanized monoclonal antibody made in CHO cells; also called ANG50; ANGH4 + ANGK4) VH: QITLKESGPTLVKPTQTLTLTCTFSGFSLSTSGMGVGWIRQPPGKALEWLAHIWWDDDKYYNPSLKSRLTITKDTSKNQVDLTMTFMDPWDTATYYCAHKDYGSSYDYWGQGTLVTVSS VL: DIQMTQSPSSLSASVGDRVTITCKASQSVDYDGDSYLNWYQQKPGKAPNLLIYTASNLESGVPSRFSGSGSGTDFTLTISSLQPEDFATYYCQQSNEDPWTFGEGTKVEIK
measure_unit: M⁻¹ s⁻¹
kon: 495000
--
binder: Antuzumab 3 (antibody, V domains shown, Humanized monoclonal antibody made in CHO cells; also called ANG27; ANGH1 + ANGK1) VH: QITLKESGPTLVKPTQTLTLTCTFSGFSLSTSGMGVGWIRQPPGKALEWLAHIWWDDDKYYNPSLKSRLTITKDTSKNQVVLTMTNMDPVDTATYYCARKDYGSSYDYWGQGTLVTVSS VL: DIVMTQSPDSLAVSLGERATINCKASQSVDYDGDSYLNWYQQKPGQPPKLLIYTASNLESGVPDRFSGSGSGTDFTLTISSLQAEDVAVYYCQQSNEDPWTFGQGTKVEIK
measure_unit: M⁻¹ s⁻¹
kon: 212000

Task: Recorded kon of Antuzumab 1 (antibody, V domains shown, Humanized monoclonal antibody made in CHO cells; also called ANG49; ANGH3 + ANGK3) VH: QVTLKESGPTLVKPTQTLTLTCTFSGFSLSTSGMGVGWIRQPPGKALEWLAHIWWDDDKYYNPSLKSRLTISKDTSKNQVVLTMTNMDPVDTATYYCARKDYGSSYDYWGQGTTVTVSS VL: DIVMTQSPLSLPVTPGEPASISCKASQSVDYDGDSYLNWYLQKPGQSPRLLIYTASNLESGVPDRFSGSGSGTDFTLKISRVEAEDVGVYYCFQSNEDPWTFGQGTKLEIK , please.
Output: 658000
